Origin of values: paper PMC12416549

Target: T1, TNFR1 (Homo sapiens, UniProt P19438)
T1 chain: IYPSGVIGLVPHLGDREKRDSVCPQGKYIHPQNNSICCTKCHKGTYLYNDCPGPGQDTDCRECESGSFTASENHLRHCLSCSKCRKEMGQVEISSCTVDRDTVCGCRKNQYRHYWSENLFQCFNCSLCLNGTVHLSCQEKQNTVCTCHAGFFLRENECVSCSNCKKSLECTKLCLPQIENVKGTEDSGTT
Assay: yeast display SC50
Threshold 0.5 nM. apparent Kd (screen) below it: Met. apparent Kd (screen) at it or above: Not met.

Example cases with answers are listed next.
E91Y (designed binder) SMEEEVEKAAKEYEKKKKEAIEKHLEKLKAKDKEAAERFLKELEEAAKEYAKDEAKTMSEEEAKRRAKKYKEKVLLSELSEEEQKEIKEAYEKLVRTILKYVEEAAK ... Not met
K41G (designed binder) SMEEEVEKAAKEYEKKKKEAIEKHLEKLKAKDKEAAERFLGELEEAAKEYAKDEAKTMSEEEAKRRAKKYKEKVLLSELSEEEQKEIKEAEEKLVRTILKYVEEAAK ... Not met

Q: In plain terms, does E26W (designed binder) SMEEEVEKAAKEYEKKKKEAIEKHLWKLKAKDKEAAERFLKELEEAAKEYAKDEAKTMSEEEAKRRAKKYKEKVLLSELSEEEQKEIKEAEEKLVRTILKYVEEAAK come in under 0.5 nM for apparent Kd (screen)?
A: Not met

Q: In plain terms, does V95N (designed binder) SMEEEVEKAAKEYEKKKKEAIEKHLEKLKAKDKEAAERFLKELEEAAKEYAKDEAKTMSEEEAKRRAKKYKEKVLLSELSEEEQKEIKEAEEKLNRTILKYVEEAAK come in under 0.5 nM for apparent Kd (screen)?
A: Not met

Q: In plain terms, does L25M (designed binder) SMEEEVEKAAKEYEKKKKEAIEKHMEKLKAKDKEAAERFLKELEEAAKEYAKDEAKTMSEEEAKRRAKKYKEKVLLSELSEEEQKEIKEAEEKLVRTILKYVEEAAK come in under 0.5 nM for apparent Kd (screen)?
A: Not met

Q: In plain terms, does E103K (designed binder) SMEEEVEKAAKEYEKKKKEAIEKHLEKLKAKDKEAAERFLKELEEAAKEYAKDEAKTMSEEEAKRRAKKYKEKVLLSELSEEEQKEIKEAEEKLVRTILKYVKEAAK come in under 0.5 nM for apparent Kd (screen)?
A: Met

Q: In plain terms, does A67Y (designed binder) SMEEEVEKAAKEYEKKKKEAIEKHLEKLKAKDKEAAERFLKELEEAAKEYAKDEAKTMSEEEAKRRYKKYKEKVLLSELSEEEQKEIKEAEEKLVRTILKYVEEAAK come in under 0.5 nM for apparent Kd (screen)?
A: Not met

Q: In plain terms, does V95R (designed binder) SMEEEVEKAAKEYEKKKKEAIEKHLEKLKAKDKEAAERFLKELEEAAKEYAKDEAKTMSEEEAKRRAKKYKEKVLLSELSEEEQKEIKEAEEKLRRTILKYVEEAAK come in under 0.5 nM for apparent Kd (screen)?
A: Not met

Q: In plain terms, does D53M (designed binder) SMEEEVEKAAKEYEKKKKEAIEKHLEKLKAKDKEAAERFLKELEEAAKEYAKMEAKTMSEEEAKRRAKKYKEKVLLSELSEEEQKEIKEAEEKLVRTILKYVEEAAK come in under 0.5 nM for apparent Kd (screen)?
A: Not met

Q: In plain terms, does K29I (designed binder) SMEEEVEKAAKEYEKKKKEAIEKHLEKLIAKDKEAAERFLKELEEAAKEYAKDEAKTMSEEEAKRRAKKYKEKVLLSELSEEEQKEIKEAEEKLVRTILKYVEEAAK come in under 0.5 nM for apparent Kd (screen)?
A: Not met
